Catalogue of Kd values
# Measured On: CLB2 (Homo sapiens, UniProt P22676)
# Sequence (P22676 1-271): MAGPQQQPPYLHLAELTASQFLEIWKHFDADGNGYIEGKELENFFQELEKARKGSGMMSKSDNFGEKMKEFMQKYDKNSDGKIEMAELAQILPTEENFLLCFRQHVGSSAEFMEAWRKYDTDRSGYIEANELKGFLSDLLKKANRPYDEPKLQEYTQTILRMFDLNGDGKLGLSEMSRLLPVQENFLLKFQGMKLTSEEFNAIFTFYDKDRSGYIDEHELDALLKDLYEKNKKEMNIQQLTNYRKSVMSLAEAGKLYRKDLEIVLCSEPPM
Measurement Name: Kd (µM)

>>> value("CC(C)c1c(C(=O)Nc2ccccc2)c(-c2ccccc2)c(-c2ccc(F)cc2)n1C [Compound 780104]")
6.07
>>> value("CC(C)c1c(C(=O)Nc2ccccc2)c(-c2ccccc2)c(-c2ccc(F)cc2)n1CCO [Compound 780078]")
2.34
>>> value("CC(C)c1[nH]c(-c2ccc(F)cc2)c(-c2ccccc2)c1C(=O)Nc1ccccc1 [Compound 781430]")
0.94
>>> value("CC(C)c1c(C(=O)Nc2ccccc2)c(-c2ccccc2)c(-c2ccc(F)cc2)n1CC[C@@H]1C[C@H](CC(=O)O)OC(C)(C)O1 [Compound 782964]")
9
>>> value("COc1ccc(-c2[nH]c(C(C)C)c(C(=O)Nc3ccccc3)c2-c2ccccc2)cc1 [Compound 780988]")
6
>>> value("CC(C)c1c(C(=O)Nc2ccccc2)c(-c2ccccc2)c(-c2ccc(F)cc2)n1CCS(=O)O [Compound 783666]")
1.85
>>> value("CC(C)c1c(C(=O)Nc2ccccc2)c(-c2ccccc2)c(-c2ccc(F)cc2)n1CCCCCO [Compound 780676]")
1.89

* * *

Target sequence: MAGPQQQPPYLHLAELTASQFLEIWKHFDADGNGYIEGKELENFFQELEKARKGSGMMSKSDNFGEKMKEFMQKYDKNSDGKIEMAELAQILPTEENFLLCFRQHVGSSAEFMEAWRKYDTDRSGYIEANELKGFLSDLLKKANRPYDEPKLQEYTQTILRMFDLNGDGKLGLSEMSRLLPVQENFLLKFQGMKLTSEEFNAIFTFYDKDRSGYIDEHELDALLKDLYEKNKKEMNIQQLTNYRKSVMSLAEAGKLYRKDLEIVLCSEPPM
Catalogue of compounds with associated Kd
Measurement Name: Kd (nM)

>>> value("CC(C)c1c(C(=O)Nc2ccccc2)c(-c2ccccc2)c(-c2ccc(F)cc2)n1CCN1CCOCC1 [Compound 780052]")
6000
>>> value("CC(C)c1c(C(=O)Nc2ccccc2)c(-c2ccccc2)c(-c2ccc(F)cc2)n1CCCCCCC(=O)O [Compound 780728]")
1650
>>> value("CC(=O)NCCn1c(-c2ccc(F)cc2)c(-c2ccccc2)c(C(=O)Nc2ccccc2)c1C(C)C [Compound 780754]")
1830
>>> value("CC(C)c1c(C(=O)Nc2ccccc2)c(-c2ccccc2)c(-c2ccc(F)cc2)n1CC(O)CC(=O)O (stereo not shown) [Compound 783770]")
335

* * *

pKd: −log10 of the molar value.
Target or system PDE6D (Homo sapiens, UniProt O43924): recorded pKd listed per item.
Measurement Name: pKd

>>> value("CC(C)c1[nH]c(-c2ccc(F)cc2)c(-c2ccccc2)c1C(=O)Nc1ccccc1 [Compound 781430]")
7.12
>>> value("CC(C)c1c(C(=O)Nc2ccccc2)c(-c2ccccc2)c(-c2ccc(F)cc2)n1CC(O)CC(=O)O (centres unmarked) [Compound 783770]")
5.96
>>> value("CC(C)c1c(C(=O)Nc2ccccc2)c(-c2ccccc2)c(-c2ccc(F)cc2)n1CCCCCCC(=O)O [Compound 780728]")
6.46
>>> value("CC(C)c1c(C(=O)Nc2ccccc2)c(-c2ccccc2)c(-c2ccc(F)cc2)n1CCN1CCOCC1 [Compound 780052]")
6.41
>>> value("CC(C)c1c(C(=O)Nc2ccccc2)c(-c2ccccc2)c(-c2ccc(F)cc2)n1CC[C@@H]1C[C@H](CC(=O)O)OC(C)(C)O1 [Compound 782964]")
6.16
>>> value("CCOC(=O)CCn1c(-c2ccc(F)cc2)c(-c2ccccc2)c(C(=O)Nc2ccccc2)c1C(C)C [Compound 780026]")
5.18
>>> value("COc1ccc(-c2[nH]c(C(C)C)c(C(=O)Nc3ccccc3)c2-c2ccccc2)cc1 [Compound 780988]")
6.37
>>> value("CC(C)c1c(C(=O)Nc2ccccc2)c(-c2ccccc2)c(-c2ccc(F)cc2)n1CCOCCO [Compound 780598]")
6.52
>>> value("COCC(C(O)c1ccccc1)n1c(-c2ccc(F)cc2)c(-c2ccccc2)c(C(=O)Nc2ccccc2)c1C(C)C (centres unmarked) [Compound 780910]")
6.55
>>> value("CCCCCn1c(-c2ccc(F)cc2)c(-c2ccccc2)c(C(=O)Nc2ccccc2)c1C(C)C [Compound 782366]")
6.09
>>> value("CC(C)c1c(C(=O)Nc2ccccc2)c(-c2ccccc2)c(-c2ccc(F)cc2)n1CCCN1CCCC1=O [Compound 780520]")
7.36
>>> value("CC(C)c1c(C(=O)Nc2ccccc2)c(-c2ccccc2)c(-c2ccc(F)cc2)n1Cc1ccccc1 [Compound 780000]")
6.22
>>> value("CC(C)c1c(C(=O)Nc2ccccc2)c(-c2ccccc2)c(-c2ccc(F)cc2)n1CCO [Compound 780078]")
6.31
>>> value("CC(C)c1c(C(=O)Nc2ccccc2)c(-c2ccccc2)c(-c2ccc(F)cc2)n1CC(O)C(O)C(O)C(O)CO (centres unmarked) [Compound 782236]")
6.57
>>> value("CC(=O)NCCn1c(-c2ccc(F)cc2)c(-c2ccccc2)c(C(=O)Nc2ccccc2)c1C(C)C [Compound 780754]")
7.24
>>> value("CC(C)c1c(C(=O)Nc2ccccc2)c(-c2ccccc2)c(-c2ccc(F)cc2)n1CCCCCO [Compound 780676]")
7.21
>>> value("CC(C)c1c(C(=O)Nc2ccccc2)c(-c2ccccc2)c(-c2ccc(F)cc2)n1CCCCCCO [Compound 780702]")
6.94

The reported measurements were obtained from patent US7323490B2.
